Just for reference, PubChem BioAssay AID1362 is where these values come from.

Give measured inhibition for each item. Keep answers brief.
- Measurement Notes: growth inhibition of WT strain, primary screen, mitochondrial fusion inhibitor project, WT and mutant strains, chemical genetic (AID 1362)
- Measurement Parameters: mitochondrial fusion phenotypic screen, WT strain, growth inhibition; at 10 µM; active compounds read high
The campaign covered roughly 190,000 compounds. About 4,000 (2.1%) were called active. This excerpt belongs to a sample that is enriched for actives.
One number for each entry, in %.

Reference set, count: 8
Compound	Unit	Observed Value
CCCCCCCCn1c2c(c(=N)c3c1CCC3)CCCC2	%	80.6
CC(NCc1nc2ccccc2n1C)C12CC3CC(CC(C3)C1)C2 (stereo not given)	%	30.5
CC(CN1CCOCC1)c1ccccc1 (stereo not given)	%	-5.68
Cc1ccccc1OCC(O)CN1CCN(c2ccccn2)CC1 (stereo not given)	%	5.12
CC(=O)C1=C(O)C(=O)N(c2cccnc2)C1c1ccc([N+](=O)[O-])cc1 (stereo not given)	%	2.65
CC(C)(CNCC(O)c1ccccc1)N1CCOCC1 (stereo not given)	%	64
OC(c1nnc(-c2ccccc2)o1)c1cccs1 (stereo not given)	%	-15.8
[O-][n+]1c2c(nn1-c1ccc(Cl)c(Cl)c1)-c1nonc1CC2	%	38

Provide each entry's inhibition from the list below.
1. Cn1cccc1C(C#N)c1ccccc1C#N (stereo not given)
2. Cc1noc(C)c1COc1ccc2ccc(=O)oc2c1
3. CCOC(=O)c1c(C2CC2)csc1NC(=O)CSCc1c(C)noc1C
4. O=C(CN1CCN(c2ccc(Cl)cc2)CC1)NCc1cccs1
5. Cc1ccc(NC(=O)NNC(=O)c2sccc2-n2cccc2)cc1
6. Fc1cccc(Cl)c1CSc1ccc(-c2ccco2)nn1
7. O=C(C1CCN(C2CCN(Cc3cccc4c3OCO4)CC2)CC1)N1CCOCC1

Response line:
1: -2.23; 2: 7.56; 3: -0.08; 4: 14.4; 5: -13.1; 6: 75.3; 7: 5.02
